Entry source: PubChem BioAssay (NCI)

Test: NCI Yeast Anticancer Drug Screen. Data for the bub3 strain (AID 167)
Settings: S. cerevisiae bub3 mutant strain; at 50.0 µM unless noted
Compounds without any hit were thinned out: in the full panel of roughly 79,000, 15% have a hit. The source made the active and inactive calls. Rule as the data show it: active = growth inhibition above about 70%; inactive = the rest.
Result category, one only: 1.0 (active), 0.0 (inactive)

How was CCCC1N[C@H](C(=O)O)CS1 (stereo not given in full) classified in this test?
0.0

// param item: `CC(=C(C#N)C#N)c1csc2ccccc12` ; yields the recorded call
0.0

More entries:
Outcome? `COc1ccc2nc3cc(Cl)ccc3c(Nc3ccccc3-c3ccccc3Nc3c4ccc(Cl)cc4nc4ccc(OC)cc34)c2c1`
0.0

Given COc1ccc(C2=C(Cl)c3cc(OC)c(OC)cc3C2Cl)cc1 (stereo not given) , state the outcome it received in this test.
0.0

Test call, this compound: `CC(C)(C)C(C)(C)SSC(C)(C)C(C)(C)C`
0.0

How was `CCCCN(CCCC)C(=N)c1ccccc1C` classified in this test?
0.0

====

Test: NCI Yeast Anticancer Drug Screen. Data for the mec2-1 strain (AID 157)
Conditions: S. cerevisiae mec2-1 strain, active compounds read high; at 50.0 µM unless noted
About 79,000 compounds went through this panel and 15% of them were active in at least one assay; those are over-represented in the sample as a whole.
TEST_READOUT: growth inhibition (%)
Write the number in % without appending the unit.

Here is how some compounds turned out for growth inhibition.
Quote growth inhibition reported for `CCOC(=O)N(C)C1(c2ccccc2)CCN(CCCC(=O)c2ccc(F)cc2)CC1` please.
-34.9

Tell us which growth inhibition value is on record for CCCCCCCCOC(=O)NC1c2ccccc2Oc2c(C)cccc21 (stereo not given)
5.9

Report growth inhibition for `CCCCCCCCCCCCSC(=S)c1c(C)[nH]n(CCCCCCCCCCCC)c1=O`
25.9

More entries:
Tell us which growth inhibition value is on record for `Nc1cc2c(cc1[N+](=O)[O-])-c1ccc(Cl)cc1C2=O`
-2.45

Item `COc1ccc(CCNC(=O)CCN2C(=O)CCC2=O)cc1OC` : provide growth inhibition
-12.8

Quickly give me recorded growth inhibition for ON=C1CCC(c2ccccc2)CC1 (stereo not given)
-24

Report growth inhibition, nothing else, for this compound: N#CC(C(=O)/C(=N/Nc1nc(=S)[nH]n1N)C(C#N)c1ccccc1)c1ccccc1 (stereo not given)
-1.45

State its growth inhibition for this compound: `O=C(N=C(Oc1ccccc1)Oc1ccccc1)N=C(Oc1ccccc1)Oc1ccccc1`
9.15

Using known records, supply growth inhibition for `O=C(CN1CCCCCC1)Nc1ccc2c(c1)C(=O)c1ccc(NC(=O)CN3CCCCCC3)cc1C2=O`
37.8

Tell me measured growth inhibition for N=c1ccccn1CC(O)COc1ccc(Cl)cc1 (stereo not given) please.
-10.1

====

Experiment: NCI Yeast Anticancer Drug Screen. Data for the sgs1 mgt1 strain (AID 161);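 also: 0% = growth of cultures given vehicle only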
Conditions: S. cerevisiae sgs1 mgt1 strain, active compounds read high; at 50.0 µM unless noted
This is part of a sample that, as a whole, favours compounds with a hit. Of some 79,000 tested, about 15% had one in any assay.
TEST_READOUT: growth inhibition (%)
# value in %; strip the unit string

Check out these entries, answers already filled in.
Check the records and state growth inhibition for CC1(C)OC2OC3C(O)C(=O)OC3C2O1 (stereo unspecified)
-19.2

Return reported growth inhibition. Input molecule: `CC(C)c1ccccc1NC(=O)CCC(=O)NN`
-7.95

State its growth inhibition for this molecule: CS(=O)CCC1C(=O)OC(C(C)(C)C)N1C(=O)c1ccccc1 (stereo unspecified)
4.55

Supply reported growth inhibition belonging to this molecule: `CNC(=O)c1n[nH]nc1Sc1c([N+](=O)[O-])ncn1C`
-34.1

Identify measured growth inhibition associated with `COc1ccc(C=C(C(=O)O)C(=O)O)cc1`
-8.15

More entries:
Tell me growth inhibition reported for O=C1NN(C(=O)c2ccccc2)C(c2ccccc2[N+](=O)[O-])c2c1c1ccccc1n2C(=O)c1ccccc1 (stereo unspecified)
5.2
